assayProtocol: PK of compound of Formula (Ia) after single intramuscular dose of solution formulations in Wistar Han rats
Type: in vivo
particulars: male, Wistar Han, rat, plasma, intramuscular, 100 mg/kg, Solution J (~400 mg/mL, poloxamer 188); IM 100 mg/kg; Wistar Han rats; mean, n = 4; 24.0 h; read-out: Plasma concentration, Mean
metric: concentration at 24 h (nM)
Give bare numbers, in nM.

Ask: Any idea what concentration at 24 h was measured for `CC(C)(C#Cc1ccc(-c2ccc(Cl)c3c(NS(C)(=O)=O)nn(CC(F)(F)F)c23)c([C@H](Cc2cc(F)cc(F)c2)NC(=O)Cn2nc(C(F)(F)F)c3c2C(F)(F)[C@@H]2C[C@H]32)n1)S(C)(=O)=O` ?
Result: 605

----------
assayProtocol: PK of compound of Formula (Ia) after single subcutaneous dose of solution formulations in Wistar Han rats
Format: in vivo
particulars: male, Wistar Han, rat, plasma, sc, 50 mg/kg, 1334 h; mean, n = 3 rats; SC 50 mg/kg; solution R, 400 mg/mL
metric: concentration at 1334 h (nM)
One number for each entry, in nM.

Ask: Any idea what concentration at 1334 h was measured for `CC(C)(C#Cc1ccc(-c2ccc(Cl)c3c(NS(C)(=O)=O)nn(CC(F)(F)F)c23)c([C@H](Cc2cc(F)cc(F)c2)NC(=O)Cn2nc(C(F)(F)F)c3c2C(F)(F)[C@@H]2C[C@H]32)n1)S(C)(=O)=O` ?
Result: 328

----------
assayProtocol: PK of compound of Formula (Ia) after single subcutaneous dose of solution formulations in Wistar Han rats
Assay type: in vivo
particulars: male, Wistar Han, rat, plasma, sc, 50 mg/kg, mean ± SD, n = 3 rats; SC 50 mg/kg; solution S, 500 mg/mL; read-out: AUC0-4704 h
metric: AUC(0-t) (µM·h)
Numbers only, in µM·h.

Ask: Any idea what AUC(0-t) was measured for `CC(C)(C#Cc1ccc(-c2ccc(Cl)c3c(NS(C)(=O)=O)nn(CC(F)(F)F)c23)c([C@H](Cc2cc(F)cc(F)c2)NC(=O)Cn2nc(C(F)(F)F)c3c2C(F)(F)[C@@H]2C[C@H]32)n1)S(C)(=O)=O` ?
Result: 817

----------
assayProtocol: PK of compound of Formula (Ia) after single subcutaneous dose of solution formulations in Wistar Han rats
Assay type: in vivo
particulars: male, Wistar Han, rat, plasma, sc, 50 mg/kg, Wistar Han rats, SC 50 mg/kg, 400 mg/mL solution AA (6.25% poloxamer 188), 8.00 h, animals #1-#4
metric: concentration at 8 h
Mention the unit after the number when you answer.

Ask: Any idea what concentration at 8 h was measured for `CC(C)(C#Cc1ccc(-c2ccc(Cl)c3c(NS(C)(=O)=O)nn(CC(F)(F)F)c23)c([C@H](Cc2cc(F)cc(F)c2)NC(=O)Cn2nc(C(F)(F)F)c3c2C(F)(F)[C@@H]2C[C@H]32)n1)S(C)(=O)=O` ?
Result: 109 nM

----------
assayProtocol: PK of compound of Formula (Ia) after single subcutaneous dose of solution formulations in Wistar Han rats
Format: in vivo
particulars: male, Wistar Han, rat, plasma, sc, 50 mg/kg, 8064 h; mean, n = 3 rats; SC 50 mg/kg; solution R, 400 mg/mL
metric: concentration at 8064 h (nM)
Give bare numbers, in nM.

Ask: Any idea what concentration at 8064 h was measured for `CC(C)(C#Cc1ccc(-c2ccc(Cl)c3c(NS(C)(=O)=O)nn(CC(F)(F)F)c23)c([C@H](Cc2cc(F)cc(F)c2)NC(=O)Cn2nc(C(F)(F)F)c3c2C(F)(F)[C@@H]2C[C@H]32)n1)S(C)(=O)=O` ?
Result: 12.3

----------
assayProtocol: PK of compound of Formula (Ia) after single subcutaneous dose of solution formulations in beagle dogs
Assay type: in vivo
particulars: male, beagle, dog, plasma, sc, 12 mg/kg, beagle dogs, SC 12 mg/kg, 400 mg/mL solution Y (water, PEG 300), 3696 h, Mean n = 3
metric: concentration at 3696 h (nM)
Answers are plain numbers, in nM.

Ask: Any idea what concentration at 3696 h was measured for `CC(C)(C#Cc1ccc(-c2ccc(Cl)c3c(NS(C)(=O)=O)nn(CC(F)(F)F)c23)c([C@H](Cc2cc(F)cc(F)c2)NC(=O)Cn2nc(C(F)(F)F)c3c2C(F)(F)[C@@H]2C[C@H]32)n1)S(C)(=O)=O` ?
Result: 3.76

----------
assayProtocol: PK of compound of Formula (Ia) after single subcutaneous dose of solution formulations in Wistar Han rats
Type: in vivo
particulars: male, Wistar Han, rat, plasma, sc, 50 mg/kg, 2352 h; mean, n = 5 rats; SC 50 mg/kg; solution U, 500 mg/mL
Experimental: Formulations containing the compound of Formula (Ia), or a pharmaceutically acceptable salt thereof, were prepared as solutions and optionally administered subcutaneously or intramuscularly to rats, rabbits, and/or dogs. A solution of about 400 mg/mL of the compound of Formula (Ia) having 19.14 w/w % water, 40.66 w/w % PEG 300, 35.20 w/w % of a sodium salt of a compound of Formula (Ia), and 5.00% ethanol was prepared. […]
metric: concentration at 2352 h (µM)
Give bare numbers, in µM.

Ask: Any idea what concentration at 2352 h was measured for `CC(C)(C#Cc1ccc(-c2ccc(Cl)c3c(NS(C)(=O)=O)nn(CC(F)(F)F)c23)c([C@H](Cc2cc(F)cc(F)c2)NC(=O)Cn2nc(C(F)(F)F)c3c2C(F)(F)[C@@H]2C[C@H]32)n1)S(C)(=O)=O` ?
Result: 0.167

----------
assayProtocol: PK of compound of Formula (Ia) after single subcutaneous dose of solution formulations in Wistar Han rats
Type: in vivo
particulars: male, Wistar Han, rat, plasma, sc, 50 mg/kg, 672 h; mean, n = 5 rats; SC 50 mg/kg; solution U, 500 mg/mL
metric: concentration at 672 h (nM)
One number for each entry, in nM.

Ask: Any idea what concentration at 672 h was measured for `CC(C)(C#Cc1ccc(-c2ccc(Cl)c3c(NS(C)(=O)=O)nn(CC(F)(F)F)c23)c([C@H](Cc2cc(F)cc(F)c2)NC(=O)Cn2nc(C(F)(F)F)c3c2C(F)(F)[C@@H]2C[C@H]32)n1)S(C)(=O)=O` ?
Result: 296

----------
assayProtocol: PK of compound of Formula (Ia) after single subcutaneous dose of solution formulations in beagle dogs
Assay type: in vivo
particulars: male, beagle, dog, plasma, sc, 12 mg/kg, 96.0 h; mean, n = 3 dogs; SC 12 mg/kg; solution U, 500 mg/mL
metric: concentration at 96 h (nM)
Give bare numbers, in nM.

Ask: Any idea what concentration at 96 h was measured for `CC(C)(C#Cc1ccc(-c2ccc(Cl)c3c(NS(C)(=O)=O)nn(CC(F)(F)F)c23)c([C@H](Cc2cc(F)cc(F)c2)NC(=O)Cn2nc(C(F)(F)F)c3c2C(F)(F)[C@@H]2C[C@H]32)n1)S(C)(=O)=O` ?
Result: 52.4

----------
assayProtocol: PK of compound of Formula (Ia) after single subcutaneous dose of solution formulations in beagle dogs
Format: in vivo
particulars: male, beagle, dog, plasma, sc, 12 mg/kg, beagle dogs, SC 12 mg/kg, 400 mg/mL solution Z (3.13% poloxamer 188), 1.00 h, animals #1-#3
metric: concentration at 1 h (nM)
Answers are plain numbers, in nM.

Ask: Any idea what concentration at 1 h was measured for CC(C)(C#Cc1ccc(-c2ccc(Cl)c3c(NS(C)(=O)=O)nn(CC(F)(F)F)c23)c([C@H](Cc2cc(F)cc(F)c2)NC(=O)Cn2nc(C(F)(F)F)c3c2C(F)(F)[C@@H]2C[C@H]32)n1)S(C)(=O)=O [compound of Formula (Ia)] ?
Result: 1.66

----------
assayProtocol: PK of compound of Formula (Ia) after single subcutaneous dose of solution formulations in Wistar Han rats
Assay type: in vivo
particulars: male, Wistar Han, rat, plasma, sc, 50 mg/kg, Wistar Han rats, SC 50 mg/kg, 400 mg/mL solution W (5.00% ethanol, 1.57% poloxamer 188), 2016 h, animals #1-#3
metric: concentration at 2016 h

Ask: Any idea what concentration at 2016 h was measured for `CC(C)(C#Cc1ccc(-c2ccc(Cl)c3c(NS(C)(=O)=O)nn(CC(F)(F)F)c23)c([C@H](Cc2cc(F)cc(F)c2)NC(=O)Cn2nc(C(F)(F)F)c3c2C(F)(F)[C@@H]2C[C@H]32)n1)S(C)(=O)=O` ?
Result: 163 nM

----------
assayProtocol: PK of compound of Formula (Ia) after single subcutaneous dose of solution formulations in Wistar Han rats
Format: in vivo
particulars: male, Wistar Han, rat, plasma, sc, 50 mg/kg, Wistar Han rats, SC 50 mg/kg, 400 mg/mL solution AA (6.25% poloxamer 188), 48.0 h, animals #1-#4
metric: concentration at 48 h (nM)
Numbers only, in nM.

Ask: Any idea what concentration at 48 h was measured for CC(C)(C#Cc1ccc(-c2ccc(Cl)c3c(NS(C)(=O)=O)nn(CC(F)(F)F)c23)c([C@H](Cc2cc(F)cc(F)c2)NC(=O)Cn2nc(C(F)(F)F)c3c2C(F)(F)[C@@H]2C[C@H]32)n1)S(C)(=O)=O [compound of Formula (Ia)] ?
Result: 272
